Reference for the values: ChEMBL document CHEMBL4831514

assay.protocol: Selectivity index, ratio of CC50 for cytotoxicity against human A549 cells to EC50 for antiviral activity against Enterovirus E LCR-4 infected in A549 cells
Assay type: toxicity, cell-based
condition.parameters: read-out: Selectivity Index
The entries below come with measured selectivity ratio values attached.

# smiles.record, selectivity ratio
records = [
    ("C=C(C)[C@@H]1CC[C@]2(COC(=O)c3cccc(C(=O)N4CCCCC4)c3)CC[C@]3(C)[C@H](CC[C@@H]4[C@@]5(C)CC[C@H](O)C(C)(C)[C@@H]5CC[C@]43C)[C@@H]12", 8.2),
    ("Nc1nc2c(ncn2COCCO)c(=O)[nH]1", 7),
    ("C#CCNC(=O)c1ccccc1C(=O)OC[C@]12CC[C@@H](C(=C)C)[C@@H]1[C@H]1CC[C@@H]3[C@@]4(C)CC[C@H](O)C(C)(C)[C@@H]4CC[C@@]3(C)[C@]1(C)CC2", 8),
]

* * *

assay.protocol: Cytotoxicity against human A549 cells assessed as reduction in cell viability incubated for 48 hrs by MTT assay
Type: cell-based
condition.parameters: A549 cells

# smiles.record, unit.of.measure, CC50 at 48 h
data = [
    ("C=C(C)[C@@H]1CC[C@]2(COC(=O)CCCCCCCCCC(=O)O)CC[C@]3(C)[C@H](CC[C@@H]4[C@@]5(C)CC[C@H](O)C(C)(C)[C@@H]5CC[C@]43C)[C@@H]12", "µM", 29.4),
    ("C=C(C)[C@@H]1CC[C@]2(COC(=O)CCCC(=O)N3CCOCC3)CC[C@]3(C)[C@H](CC[C@@H]4[C@@]5(C)CC[C@H](O)C(C)(C)[C@@H]5CC[C@]43C)[C@@H]12", "µM", 151),
    ("NC(=O)c1ncn([C@@H]2O[C@H](CO)[C@@H](O)[C@H]2O)n1", "µM", 7610),
]

* * *

System: Human adenovirus 5
assay.protocol: Antiviral activity against Human adenovirus 5 Adenoid 75 infected in A549 cells assessed as reduction in virus titer preincubated for 24 hrs followed by viral infection and measured after 72 hrs by microscopic analysis
Assay type: functional, organism-based
Active and inactive are the calls of the source. The rule behind the calls is not given here.

# molecule, target.entity, Activity
measured = [
    ("C=C(C)[C@@H]1CC[C@]2(COC(=O)CCCCCCCCCC(=O)N3CCCCC3)CC[C@]3(C)[C@H](CC[C@@H]4[C@@]5(C)CC[C@H](O)C(C)(C)[C@@H]5CC[C@]43C)[C@@H]12", "Human adenovirus 5", "inactive"),
    ("C=C(C)[C@@H]1CC[C@]2(COC(=O)CCC(=O)N3CCCCC3)CC[C@]3(C)[C@H](CC[C@@H]4[C@@]5(C)CCC(O)C(C)(C)[C@@H]5CC[C@]43C)[C@@H]12 (single isomer, unassigned)", "Human adenovirus 5", "inactive"),
    ("C=C(C)[C@@H]1CC[C@]2(COC(=O)c3ccccc3C(=O)O)CC[C@]3(C)[C@H](CC[C@@H]4[C@@]5(C)CC[C@H](O)C(C)(C)[C@@H]5CC[C@]43C)[C@@H]12", "Human adenovirus 5", "inactive"),
    ("C=C(C)[C@@H]1CC[C@]2(COC(=O)CSCC(=O)O)CC[C@]3(C)[C@H](CC[C@@H]4[C@@]5(C)CC[C@H](O)C(C)(C)[C@@H]5CC[C@]43C)[C@@H]12", "Human adenovirus 5", "inactive"),
    ("C=C(C)[C@@H]1CC[C@]2(COC(=O)c3ccccc3C(=O)N3CCSCC3)CC[C@]3(C)[C@H](CC[C@@H]4[C@@]5(C)CC[C@H](O)C(C)(C)[C@@H]5CC[C@]43C)[C@@H]12", "Human adenovirus 5", "inactive"),
    ("C#CCNC(=O)CCC(=O)OC[C@]12CC[C@@H](C(=C)C)C1[C@H]1CC[C@@H]3[C@@]4(C)CC[C@H](O)C(C)(C)[C@@H]4CC[C@@]3(C)[C@]1(C)CC2 (single isomer, unassigned)", "Human adenovirus 5", "inactive"),
    ("C=C(C)[C@@H]1CC[C@]2(COC(=O)CCC(=O)O)CC[C@]3(C)[C@H](CC[C@@H]4[C@@]5(C)CCC(O)C(C)(C)[C@@H]5CC[C@]43C)[C@@H]12 (single isomer, unassigned)", "Human adenovirus 5", "inactive"),
    ("C=C(C)[C@@H]1CC[C@]2(COC(=O)c3ccccc3C(=O)N3CCCCC3)CC[C@]3(C)[C@H](CC[C@H]4C3(C)CC[C@H]3C(C)(C)[C@@H](O)CC[C@@]34C)[C@@H]12 (single isomer, unassigned)", "Human adenovirus 5", "inactive"),
    ("C=C(C)[C@@H]1CC[C@]2(COC(=O)CCCC(=O)N3CCOCC3)CC[C@]3(C)[C@H](CC[C@@H]4[C@@]5(C)CC[C@H](O)C(C)(C)[C@@H]5CC[C@]43C)[C@@H]12", "Human adenovirus 5", "inactive"),
    ("C=C(C)[C@@H]1CC[C@]2(COC(=O)c3cccc(C(=O)N4CCCCC4)c3)CC[C@]3(C)[C@H](CC[C@@H]4[C@@]5(C)CC[C@H](O)C(C)(C)[C@@H]5CC[C@]43C)[C@@H]12", "Human adenovirus 5", "inactive"),
    ("C=C(C)[C@@H]1CCC2(COC(=O)CCCCCCCCCC(=O)N3CCSCC3)CC[C@]3(C)[C@H](CC[C@@H]4[C@@]5(C)CC[C@H](O)C(C)(C)[C@@H]5CC[C@]43C)[C@@H]12 (single isomer, unassigned)", "Human adenovirus 5", "inactive"),
    ("C=C(C)[C@@H]1CC[C@]2(COC(=O)/C=C(\\C)C(=O)O)CC[C@]3(C)[C@H](CC[C@@H]4[C@@]5(C)CC[C@H](O)C(C)(C)[C@@H]5CC[C@]43C)[C@@H]12", "Human adenovirus 5", "inactive"),
    ("C=C(C)[C@@H]1CC[C@]2(CO)CC[C@]3(C)[C@H](CC[C@@H]4[C@@]5(C)CC[C@H](O)C(C)(C)[C@@H]5CC[C@]43C)[C@@H]12", "Human adenovirus 5", "inactive"),
    ("C=C(C)[C@@H]1CC[C@]2(COC(=O)/C=C(\\C)C(=O)N3CCCCC3)CC[C@]3(C)[C@H](CC[C@@H]4[C@@]5(C)CC[C@H](O)C(C)(C)[C@@H]5CC[C@]43C)[C@@H]12", "Human adenovirus 5", "inactive"),
    ("C=C(C)[C@@H]1CC[C@]2(COC(=O)c3cccc(C(=O)N4CCOCC4)c3)CC[C@]3(C)[C@H](CC[C@@H]4[C@@]5(C)CC[C@H](O)C(C)(C)[C@@H]5CC[C@]43C)[C@@H]12", "Human adenovirus 5", "inactive"),
    ("C=C(C)[C@@H]1CC[C@]2(COC(=O)CCCC(=O)N3CCCCC3)CC[C@]3(C)[C@H](CC[C@@H]4[C@@]5(C)CC[C@H](O)C(C)(C)[C@@H]5CC[C@]43C)[C@@H]12", "Human adenovirus 5", "inactive"),
    ("C=C(C)[C@@H]1CC[C@]2(COC(=O)/C=C(\\C)C(=O)N3CCSCC3)CC[C@]3(C)[C@H](CC[C@@H]4[C@@]5(C)CC[C@H](O)C(C)(C)[C@@H]5CC[C@]43C)[C@@H]12", "Human adenovirus 5", "inactive"),
    ("C=C(C)[C@@H]1CC[C@]2(COC(=O)CCC(=O)N3CCSCC3)CC[C@]3(C)[C@H](CC[C@@H]4[C@@]5(C)CC[C@H](O)C(C)(C)[C@@H]5CC[C@]43C)[C@@H]12", "Human adenovirus 5", "inactive"),
    ("C=C(C)[C@@H]1CC[C@]2(COC(=O)CCCCCCCCCC(=O)O)CC[C@]3(C)[C@H](CC[C@@H]4[C@@]5(C)CC[C@H](O)C(C)(C)[C@@H]5CC[C@]43C)[C@@H]12", "Human adenovirus 5", "inactive"),
]
